In this section we review reported Activity values for a set of compounds.
- Test system: Rattus norvegicus
- procedureText: Wound healing activity in po dosed Swiss albino rat dead space wound model assessed as wet weight of granulation tissue per 100 gm after 24 hrs
- Assay type: functional

>  <smilesRepresentation>
COc1ccc(NC(=S)N2CCC(CCCC3CCN(C(=O)COc4ccc(C(=O)c5ccc(OC)cc5OC)cc4)CC3)CC2)cc1

>  <Activity, mg>
80.54

$$$$
>  <smilesRepresentation>
COc1ccc(C(=O)c2ccc(OCC(=O)N3CCC(CCCC4CCN(C(=S)Nc5ccc(Cl)cc5Cl)CC4)CC3)cc2)c(OC)c1

>  <Activity, mg>
88.02

$$$$
>  <smilesRepresentation>
COc1ccc(C(=O)c2ccc(OCC(=O)N3CCC(CCCC4CCN(C(=O)Nc5ccccc5Cl)CC4)CC3)cc2)c(OC)c1

>  <Activity, mg>
104.85

$$$$
>  <smilesRepresentation>
COc1ccc(C(=O)c2ccc(OCC(=O)N3CCC(CCCC4CCN(C(=S)Nc5ccccc5Cl)CC4)CC3)cc2)c(OC)c1

>  <Activity, mg>
134.79

$$$$
>  <smilesRepresentation>
COc1ccc(C(=O)c2ccc(OCC(=O)N3CCC(CCCC4CCN(C(=S)Nc5ccc(F)cc5)CC4)CC3)cc2)c(OC)c1

>  <Activity, mg>
122.94

$$$$
>  <smilesRepresentation>
COc1ccc(C(=O)c2ccc(OCC(=O)N3CCC(CCCC4CCN(C(=O)Nc5ccc(F)cc5)CC4)CC3)cc2)c(OC)c1

>  <Activity, mg>
91.31

$$$$
>  <smilesRepresentation>
COc1ccc(C(=O)c2ccc(OCC(=O)N3CCC(CCCC4CCN(C(=O)Nc5ccc(Cl)cc5Cl)CC4)CC3)cc2)c(OC)c1

>  <Activity, mg>
79

$$$$
>  <smilesRepresentation>
COc1ccc(NC(=O)N2CCC(CCCC3CCN(C(=O)COc4ccc(C(=O)c5ccc(OC)cc5OC)cc4)CC3)CC2)cc1

>  <Activity, mg>
112.48

$$$$
